- Test system: Peripheral blood mononuclear cells (PBMC)
- test.details: PBMC assay: induction of cytokines INFα and INFγ
- Assay type: cell-based
- details: Homo sapiens; PBMCs, 16 h incubation; mean from three different PBMC donors; read-out: PBMC assay EC50 INF γ
readout.kind: pEC50
Give bare numbers, as −log10 of the molar value.

Here is how some compounds turned out for pEC50.
[
  {
    "structure.as.smiles": "Cc1cn([C@@H]2O[C@@H]3COP(=O)(O)O[C@@H]4[C@H](O)[C@@H](COP(=O)(O)O[C@H]3[C@H]2O)O[C@H]4n2cnc3c(=O)[nH]c(N)nc32)c2ncnc(N)c12",
    "pEC50": 5.11
  },
  {
    "structure.as.smiles": "Nc1nc2c(ncn2[C@@H]2O[C@@H]3COP(=O)(O)O[C@H]4[C@@H](O)[C@H](n5cc(-c6cc7ccccc7s6)c6c(N)ncnc65)O[C@@H]4COP(=O)(O)O[C@@H]2[C@@H]3O)c(=O)[nH]1",
    "pEC50": 4.32
  }
]

For each of the compounds below, note its pEC50.
1. Nc1nc2c(ncn2[C@@H]2O[C@@H]3COP(=O)(O)O[C@H]4[C@@H](O)[C@H](n5cc(-c6ccc(-c7ccccc7)cc6)c6c(N)ncnc65)O[C@@H]4COP(=O)(O)O[C@@H]2[C@@H]3O)c(=O)[nH]1
2. Nc1nc2c(ncn2[C@@H]2O[C@@H]3COP(=O)(O)O[C@H]4[C@@H](O)[C@H](n5cc(-c6cccs6)c6c(N)ncnc65)O[C@@H]4COP(=O)(O)O[C@@H]2[C@@H]3O)c(=O)[nH]1

[5.70, 5.59]

---

- Tested on: Peripheral blood mononuclear cells (PBMC)
- test.details: PBMC assay: induction of cytokines INFα and INFγ
- Assay type: cell-based
- details: Homo sapiens; PBMCs, 16 h incubation; mean from three different PBMC donors; read-out: PBMC assay EC50 INF γ
readout.kind: EC50 (nM)
Answers are plain numbers, in nM.

[
  {
    "compound": "Nc1nc2c(ncn2[C@@H]2O[C@@H]3COP(=O)(O)O[C@H]4[C@@H](O)[C@H](n5cc(-c6ccc(COc7cccc8ccccc78)cc6)c6c(N)ncnc65)O[C@@H]4COP(=O)(O)O[C@@H]2[C@@H]3O)c(=O)[nH]1 [Compound 1h]",
    "EC50, nM": 1080
  }
]

Please state EC50 for every compound in the list that follows.
1. Nc1nc2c(ncn2[C@@H]2O[C@@H]3COP(=O)(O)O[C@H]4[C@@H](O)[C@H](n5cc(-c6cc7ccccc7o6)c6c(N)ncnc65)O[C@@H]4COP(=O)(O)O[C@@H]2[C@@H]3O)c(=O)[nH]1 [Compound 1k]
2. Nc1nc2c(ncn2[C@@H]2O[C@@H]3COP(=O)(O)O[C@H]4[C@@H](O)[C@H](n5ccc6c(N)ncnc65)O[C@@H]4COP(=O)(O)O[C@@H]2[C@@H]3O)c(=O)[nH]1 [Compound 1n, reference compound]
3. Nc1nc2c(ncn2[C@@H]2O[C@@H]3COP(=O)(O)O[C@H]4[C@@H](O)[C@H](n5cc(-c6ccc(-c7ccc8ccccc8c7)cc6)c6c(N)ncnc65)O[C@@H]4COP(=O)(O)O[C@@H]2[C@@H]3O)c(=O)[nH]1 [Compound 1g]
4. Nc1nc2c(ncn2[C@@H]2O[C@@H]3COP(=O)(O)O[C@H]4[C@@H](O)[C@H](n5cc(-c6ccco6)c6c(N)ncnc65)O[C@@H]4COP(=O)(O)O[C@@H]2[C@@H]3O)c(=O)[nH]1 [Compound 1i]

1: 8480; 2: 67600; 3: 1800; 4: 2240

---

- test.system: wt hSTING (Homo sapiens)
- test.details: Standard 293T reporter cell-based assay (IRF-3 dependent firefly luciferase reporter)
- details: read-out: Standard assay EC50; 293T reporter cells expressing wt hSTING; 7 h incubation; mean of three independent experiments in triplicates, SD <50%
Record form. Attribute: EC50. Fill in for each entry.

[
  {
    "structure.as.smiles": "Nc1nc2c(ncn2[C@@H]2O[C@@H]3COP(=O)(O)O[C@H]4[C@@H](O)[C@H](n5cc(-c6cc7ccccc7c7ccccc67)c6c(N)ncnc65)O[C@@H]4COP(=O)(O)O[C@@H]2[C@@H]3O)c(=O)[nH]1",
    "test.system": "wt hSTING (Homo sapiens)",
    "EC50": "65.5 µM"
  },
  {
    "structure.as.smiles": "Nc1nc2c(ncn2[C@@H]2O[C@@H]3COP(=O)(O)O[C@H]4[C@@H](O)[C@H](n5cc(-c6cc7ccccc7o6)c6c(N)ncnc65)O[C@@H]4COP(=O)(O)O[C@@H]2[C@@H]3O)c(=O)[nH]1",
    "test.system": "wt hSTING (Homo sapiens)",
    "EC50": "10.9 µM"
  },
  {
    "structure.as.smiles": "Nc1nc2c(ncn2[C@@H]2O[C@@H]3COP(=O)(O)O[C@H]4[C@@H](O)[C@H](n5cc(-c6ccccc6)c6c(N)ncnc65)O[C@@H]4COP(=O)(O)O[C@@H]2[C@@H]3O)c(=O)[nH]1",
    "test.system": "wt hSTING (Homo sapiens)",
    "EC50": "40.7 µM"
  }
]

Attention now shifts to the item below.
Entry Nc1nc2c(ncn2[C@@H]2O[C@@H]3COP(=O)(O)O[C@H]4[C@@H](O)[C@H](n5cc(-c6ccc7ccccc7c6)c6c(N)ncnc65)O[C@@H]4COP(=O)(O)O[C@@H]2[C@@H]3O)c(=O)[nH]1 has what EC50? 7.63 µM

---

- test.system: wt hSTING (Homo sapiens, UniProt Q86WV6)
- Sequence (Q86WV6 whole entry H232R): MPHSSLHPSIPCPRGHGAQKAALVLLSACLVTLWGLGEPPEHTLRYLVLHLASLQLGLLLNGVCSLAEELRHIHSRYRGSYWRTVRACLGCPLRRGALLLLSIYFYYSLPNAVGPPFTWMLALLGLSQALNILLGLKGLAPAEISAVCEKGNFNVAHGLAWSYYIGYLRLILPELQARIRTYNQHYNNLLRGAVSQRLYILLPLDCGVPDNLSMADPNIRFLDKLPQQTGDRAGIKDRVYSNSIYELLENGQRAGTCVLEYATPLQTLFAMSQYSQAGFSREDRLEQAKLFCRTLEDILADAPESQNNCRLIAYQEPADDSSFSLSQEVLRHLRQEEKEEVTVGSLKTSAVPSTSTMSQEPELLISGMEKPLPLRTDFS
- test.details: Standard 293T reporter cell-based assay (IRF-3 dependent firefly luciferase reporter)
- details: read-out: Standard assay EC50; 293T reporter cells expressing wt hSTING; 7 h incubation; mean of three independent experiments in triplicates, SD <50%
Please provide measured pEC50 for the entries that follow.
One number for each entry, as −log10 of the molar value.

Recorded pEC50, per entry:
[
  {
    "structure.as.smiles": "Nc1nc2c(ncn2[C@@H]2O[C@@H]3COP(=O)(O)O[C@H]4[C@@H](O)[C@H](n5cc(-c6ccc(COc7cccc8ccccc78)cc6)c6c(N)ncnc65)O[C@@H]4COP(=O)(O)O[C@@H]2[C@@H]3O)c(=O)[nH]1",
    "pEC50": 5.59
  },
  {
    "structure.as.smiles": "Nc1nc2c(ncn2[C@@H]2O[C@@H]3COP(=O)(O)O[C@H]4[C@@H](O)[C@H](n5cc(-c6ccc(-c7ccccc7)cc6)c6c(N)ncnc65)O[C@@H]4COP(=O)(O)O[C@@H]2[C@@H]3O)c(=O)[nH]1",
    "pEC50": 5.53
  }
]

Please report pEC50 for every entry that follows.
1. Nc1nc2c(ncn2[C@@H]2O[C@@H]3COP(=O)(O)O[C@H]4[C@@H](O)[C@H](n5cc(-c6cccc7ccccc67)c6c(N)ncnc65)O[C@@H]4COP(=O)(O)O[C@@H]2[C@@H]3O)c(=O)[nH]1
2. Nc1nc2c(ncn2[C@@H]2O[C@@H]3COP(=O)(O)O[C@H]4[C@@H](O)[C@H](n5cc(-c6cc7ccccc7s6)c6c(N)ncnc65)O[C@@H]4COP(=O)(O)O[C@@H]2[C@@H]3O)c(=O)[nH]1
3. Nc1nc2c(ncn2[C@@H]2O[C@@H]3COP(=O)(O)O[C@H]4[C@@H](O)[C@H](n5cc(-c6cccc7c6oc6ccccc67)c6c(N)ncnc65)O[C@@H]4COP(=O)(O)O[C@@H]2[C@@H]3O)c(=O)[nH]1
4. Nc1nc2c(ncn2[C@@H]2O[C@@H]3COP(=O)(O)O[C@H]4[C@@H](O)[C@H](n5cc(-c6ccc(-c7ccc8ccccc8c7)cc6)c6c(N)ncnc65)O[C@@H]4COP(=O)(O)O[C@@H]2[C@@H]3O)c(=O)[nH]1

4.37
5.06
4.72
5.51
